Numbers sourced from the supplement of paper PMC10567573.

B1: FAM107A (parent)
chain: LQRVLEHRRRNQLIKKKKEELEAK

Variants of: B1
TEST_DESCRIPTION: protein stability index of a GFP-peptide fusion (GPS, HEK-293T) (PSI 1-6); higher = more stable;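 further: lentivirally expressed fusions sorted by FACS into six bins by GFP to DsRed ratio, PSI derived from sequencing read proportions per bin multiplied by bin number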
TEST_PARAMETERS: c terminus: a fixed tail appended
# maps each entry to its protein stability index

- ALTERATION: "L13Y"
  protein stability index: 3.37
- ALTERATION: "K24D"
  protein stability index: 3.89
- ALTERATION: "L13E"
  protein stability index: 4.54
